Target: T1, ECF04_1609
T1 chain: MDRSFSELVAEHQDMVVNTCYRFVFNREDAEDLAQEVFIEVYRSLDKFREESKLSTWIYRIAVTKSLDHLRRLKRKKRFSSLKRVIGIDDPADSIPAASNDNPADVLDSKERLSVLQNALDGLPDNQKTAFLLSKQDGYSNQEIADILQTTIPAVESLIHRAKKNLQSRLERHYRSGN
endpoint: fold repression
Respond with the number and no other words.

Fill in the blank: the reported fold repression of AS27_1331 (protein) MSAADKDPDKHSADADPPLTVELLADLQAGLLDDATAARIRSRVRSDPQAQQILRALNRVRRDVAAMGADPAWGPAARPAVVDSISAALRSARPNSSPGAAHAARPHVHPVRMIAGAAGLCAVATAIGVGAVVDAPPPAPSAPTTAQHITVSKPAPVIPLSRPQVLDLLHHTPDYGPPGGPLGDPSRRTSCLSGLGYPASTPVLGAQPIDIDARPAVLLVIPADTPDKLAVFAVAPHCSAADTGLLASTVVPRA is ____.
5.65

Fill in the blank: the reported fold repression of AS37_2513 (protein) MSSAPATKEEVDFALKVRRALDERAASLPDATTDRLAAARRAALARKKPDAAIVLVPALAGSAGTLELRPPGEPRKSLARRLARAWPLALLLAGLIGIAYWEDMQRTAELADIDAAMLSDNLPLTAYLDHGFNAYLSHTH is ____.
4.3

Fill in the blank: the reported fold repression of AS11_987 (protein) MNKHPDNNLLEAYASGSIDAVSGLVVATHLETCSKCRAYVNQVEASQANTVSESPSEYSPEFDDMLNDIINAEPVNDNVVIQDTAFVNVAGKSFELPKTLVRFSDLVGSWRSYGGKVFSAQIDLGEDARVSLMYIGENVQIPQHTHRGLESTLVLHGGFSDEDGQYEEGDLMVRDASVKHSPFTQEGEDCLCLTVLTEPMIFTQGVARIFNLFGKGLYP is ____.
2.66
